All values here come from patent US20260007758A1.

Below, each entry is listed alongside its reported EC50.
- Assayed target: human somatostatin receptor subtype 2 (Homo sapiens)
- Construct: expressed in transfected cells
- Sequence (P30874 whole entry): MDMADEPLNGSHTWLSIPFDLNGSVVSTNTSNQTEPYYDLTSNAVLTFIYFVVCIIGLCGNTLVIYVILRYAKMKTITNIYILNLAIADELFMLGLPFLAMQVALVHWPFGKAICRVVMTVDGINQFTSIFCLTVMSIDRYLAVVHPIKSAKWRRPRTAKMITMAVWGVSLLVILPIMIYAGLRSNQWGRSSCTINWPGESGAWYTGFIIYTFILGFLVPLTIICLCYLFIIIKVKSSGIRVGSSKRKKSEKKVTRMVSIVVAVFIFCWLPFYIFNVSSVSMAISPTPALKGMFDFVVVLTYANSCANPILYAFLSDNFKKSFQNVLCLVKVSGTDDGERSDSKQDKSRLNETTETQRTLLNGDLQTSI
- Protocol summary: Functional assay for SSTR2 agonists (HTRF cAMP)
- Assay type: cell-based
- Conditions used: CHO-K1 cells stably expressing human SST2; NKH477-stimulated cAMP; 20 min at 37 C; read-out: hSST2 cAMP Avg EC50
Numeric answer only, unit nM assumed.

compound="CC[C@H](C)[C@@H]([C@@H](CC(=O)N1CCC[C@H]1[C@H](OC)[C@@H](C)C(=O)N[C@H](C)[C@@H](O)c1ccccc1)OC)N(C)C(=O)[C@@H](NC(=O)[C@H](C(C)C)N(C)C(=O)OCc1ccc(NC(=O)[C@H](CCCNC(N)=O)NC(=O)[C@@H](NC(=O)CCOCCC(=O)N(C)CC(=O)NCCNc2ncc(-c3cc(C)cc(F)c3)c(N3CCC(N)CC3)c2-c2nc3ccc(Cl)cc3[nH]2)C(C)C)c(O)c1)C(C)C [Compound 199]" value_observed=0.071

Entry CC[C@H](C)[C@@H]([C@@H](CC(=O)N1CCC[C@H]1[C@H](OC)[C@@H](C)C(=O)N[C@H](C)[C@@H](O)c1ccccc1)OC)N(C)C(=O)[C@@H](NC(=O)[C@H](C(C)C)N(C)C(=O)OCc1ccc(NC(=O)[C@H](CCCNC(N)=O)NC(=O)[C@@H](NC(=O)CCOCCC(=O)NCCNc2ncc(-c3cc(C)cc(F)c3)c(N3CCC(N)CC3)c2-c2nc3ccc(Cl)cc3[nH]2)C(C)C)c(O[C@@H]2O[C@H](C(=O)N(C)CC(=O)O)[C@@H](O)[C@H](O)[C@H]2O)c1)C(C)C [Compound 216] : reported EC50 = ?
0.076

----------
- Assayed target: human somatostatin receptor subtype 2 (Homo sapiens)
- Construct: expressed in transfected cells
- Protocol summary: Functional assay for SSTR2 agonists (HTRF cAMP)
- Format: cell-based
- Conditions used: CHO-K1 cells stably expressing human SST2; NKH477-stimulated cAMP; 20 min at 37 C; read-out: hSST2 cAMP Avg EC50
Outcome measure: pEC50
Note on pEC50: it is the negative log10 of concentration, concentration in mol/L.

Below: 8 molecules and their reported pEC50.
molecule="CC[C@H](C)[C@@H]([C@@H](CC(=O)N1CCC[C@H]1[C@H](OC)[C@@H](C)C(=O)N[C@H](C)[C@@H](O)c1ccccc1)OC)N(C)C(=O)[C@@H](NC(=O)[C@H](C(C)C)N(C)C(=O)OCc1ccc(NC(=O)[C@H](CCCNC(N)=O)NC(=O)[C@@H](NC(=O)CCOCCC(=O)NCCNc2ncc(-c3cc(C)cc(F)c3)c(N3CCC(N)CC3)c2-c2nc3ccc(Cl)cc3[nH]2)C(C)C)c(O[C@@H]2O[C@H](C(=O)N3CCNCC3)[C@@H](O)[C@H](O)[C@H]2O)c1)C(C)C [Compound 222]" value_observed=9.96
molecule="CC[C@H](C)[C@@H]([C@@H](CC(=O)N1CCC[C@H]1[C@H](OC)[C@@H](C)C(=O)N[C@H](C)[C@@H](O)c1ccccc1)OC)N(C)C(=O)[C@@H](NC(=O)[C@H](C(C)C)N(C)C(=O)OCc1ccc(NC(=O)[C@H](CCCNC(N)=O)NC(=O)[C@@H](NC(=O)CCOCCC(=O)NCCNc2ncc(-c3cc(C)cc(F)c3)c(N3CCC(N)CC3)c2-c2nc3ccc(Cl)cc3[nH]2)C(C)C)c(OCC(=O)O)c1)C(C)C [Compound 18]" value_observed=10.01
molecule="CC[C@H](C)[C@@H]([C@@H](CC(=O)N1CCC[C@H]1[C@H](OC)[C@@H](C)C(=O)N[C@H](C)[C@@H](O)c1ccccc1)OC)N(C)C(=O)[C@@H](NC(=O)[C@H](C(C)C)N(C)C(=O)OCc1ccc(NC(=O)[C@H](CCCNC(N)=O)NC(=O)[C@@H](NC(=O)c2ccc(NC(=O)CCOCCC(=O)NCCNc3ncc(-c4cc(C)cc(F)c4)c(N4CCC(N)CC4)c3-c3nc4ccc(Cl)cc4[nH]3)cc2O[C@@H]2OC(C(=O)O)[C@@H](O)[C@H](O)[C@H]2O)C(C)C)cc1)C(C)C (stereo partly drawn) [Compound 182]" value_observed=10.03
molecule="CC[C@H](C)[C@@H]([C@@H](CC(=O)N1CCCC1[C@H](OC)[C@@H](C)C(=O)N[C@H](C)[C@@H](O)c1ccccc1)OC)N(C)C(=O)[C@@H](NC(=O)[C@H](C(C)C)N(C)C(=O)OCc1ccc(O[C@@H]2O[C@H](C(=O)O)[C@@H](O)[C@H](O)[C@H]2O)c(NC(=O)[C@H](C)NC(=O)[C@@H](NC(=O)CCOCCC(=O)NCCNc2ncc(-c3cc(C)cc(F)c3)c(N3CCC(N)CC3)c2-c2nc3ccc(Cl)cc3[nH]2)C(C)C)c1)C(C)C (stereo partly drawn) [Compound 249]" value_observed=10.07
molecule="CC[C@H](C)[C@@H]([C@@H](CC(=O)N1CCC[C@H]1[C@H](OC)[C@@H](C)C(=O)N[C@H](C)[C@@H](O)c1ccccc1)OC)N(C)C(=O)[C@@H](NC(=O)C(C(C)C)N(C)C(=O)OCc1ccc(NC(=O)[C@H](CCCNC(N)=O)NC(=O)[C@@H](NC(=O)CCOCCC(=O)NCCNc2ncc(-c3cc(C)cc(F)c3)c(N3CCC(N)CC3)c2-c2nc3ccc(Cl)cc3[nH]2)C(C)C)c(O[C@@H]2O[C@H](C(=O)N3CCC(C(=O)O)CC3)[C@@H](O)[C@H](O)[C@H]2O)c1)C(C)C (stereo partly drawn) [Compound 235]" value_observed=9.96
molecule="CC[C@H](C)[C@@H]([C@@H](CC(=O)N1CCC[C@H]1[C@H](OC)[C@@H](C)C(=O)N[C@H](C)[C@@H](O)c1ccccc1)OC)N(C)C(=O)[C@@H](NC(=O)[C@H](C(C)C)N(C)C(=O)OCc1ccc(NC(=O)[C@H](CCCNC(N)=O)NC(=O)[C@@H](NC(=O)c2cc(NCCOCCOCCOCCC(=O)NCCNc3ncc(-c4cc(C)cc(F)c4)c(N4CCC(N)CC4)c3-c3nc4ccc(Cl)cc4[nH]3)cc(C(=O)NCCN)c2)C(C)C)cc1)C(C)C [Compound 179]" value_observed=9.27
molecule="CC[C@H](C)[C@@H]([C@@H](CC(=O)N1CCC[C@H]1[C@H](OC)[C@@H](C)C(=O)N[C@H](C)[C@@H](O)c1ccccc1)OC)N(C)C(=O)[C@@H](NC(=O)[C@H](C(C)C)N(C)C(=O)OCc1ccc(NC(=O)[C@H](CCCNC(N)=O)NC(=O)[C@@H](NS(=O)(=O)C[C@H](C)NC(=O)CCOCCC(=O)NCCNc2ncc(-c3cc(C)cc(F)c3)c(N3CCC(N)CC3)c2-c2nc3ccc(Cl)cc3[nH]2)C(C)C)c(O[C@@H]2O[C@H](C(=O)NCC(=O)O)[C@@H](O)[C@H](O)[C@H]2O)c1)C(C)C [Compound 214]" value_observed=9.96
molecule="CC[C@H](C)[C@@H]([C@@H](CC(=O)N1CCC[C@H]1[C@H](OC)[C@@H](C)C(=O)N[C@H](C)[C@@H](O)c1ccccc1)OC)N(C)C(=O)[C@@H](NC(=O)[C@H](C(C)C)N(C)C(=O)OCc1ccc(NC(=O)[C@H](CCCNC(N)=O)NC(=O)[C@@H](NC(=O)CCOCCC(=O)NCCNc2ncc(-c3cc(C)cc(F)c3)c(N3CCC(N)CC3)c2-c2nc3c(F)c(F)ccc3[nH]2)C(C)C)c(O[C@@H]2O[C@H](C(=O)O)[C@@H](O)[C@H](O)[C@H]2O)c1)C(C)C [Compound 110]" value_observed=9.00

# ---- query molecule ----
Param item = CC[C@H](C)[C@@H]([C@@H](CC(=O)N1CCC[C@H]1[C@H](OC)[C@@H](C)C(=O)N[C@H](C)[C@@H](O)c1ccccc1)OC)N(C)C(=O)[C@@H](NC(=O)[C@H](C(C)C)N(C)C(=O)OCc1ccc(NC(=O)[C@H](CCCNC(N)=O)NC(=O)[C@@H](NC(=O)CCOCCC(=O)NCCNc2ncc(-c3cc(C)cc(F)c3)c(N3CCC(N)CC3)c2-c2nc3ccc(Cl)cc3[nH]2)C(C)C)c(OCCO)c1)C(C)C [Compound 12] ; retrieve measured pEC50.
9.62
